Experiment: Psilocin-d10 pharmacokinetics in female beagle dogs, oral gavage and intravenous (bolus)
Measurement Parameters: female, beagle, dog, plasma, iv, 0.2 mg/kg, Vss, female dog plasma, single IV bolus 0.20 mg/kg, Median (N=3)
Metric: Vd (L/kg)
Write the value in L/kg as a bare number.

Query: Item [2H]C([2H])([2H])N(C([2H])([2H])[2H])C([2H])([2H])C([2H])([2H])c1c[nH]c2cccc(O)c12 has what recorded Vd?
Result: 3.96

----------
Experiment: Psilocin-d10 pharmacokinetics in female beagle dogs, oral gavage and intravenous (bolus)
Measurement Parameters: female, beagle, dog, plasma, iv, 0.2 mg/kg, Cmax, female dog plasma, single IV bolus 0.20 mg/kg, animal 60F
Metric: Cmax (ng/mL)
Provide the reading as a plain figure in ng/mL.

Query: GET /values?readout=Cmax&item= [2H]C([2H])([2H])N(C([2H])([2H])[2H])C([2H])([2H])C([2H])([2H])c1c[nH]c2cccc(O)c12
Result: 45.9

----------
Experiment: Psilocin-d10 pharmacokinetics in female beagle dogs, oral gavage and intravenous (bolus)
Measurement Parameters: female, beagle, dog, plasma, iv, 0.2 mg/kg, AUC0-inf, female dog plasma, single IV bolus 0.20 mg/kg, Median (N=3)
Metric: AUC(0-inf) (µg·h/mL)
Respond numerically; units are µg·h/mL and should not be typed.

Query: I have this compound here, [2H]C([2H])([2H])N(C([2H])([2H])[2H])C([2H])([2H])C([2H])([2H])c1c[nH]c2cccc(O)c12 , and I need its recorded AUC(0-inf).
Result: 0.0958

----------
Experiment: Psilocin-d10 pharmacokinetics in female beagle dogs, oral gavage and intravenous (bolus)
Measurement Parameters: female, beagle, dog, plasma, po, 1 mg/kg, mean oral bioavailability (%F), dogs, oral 1 mg/kg
Metric: bioavailability

Query: Reported bioavailability, compound [2H]C([2H])([2H])N(C([2H])([2H])[2H])C([2H])([2H])C([2H])([2H])c1c[nH]c2cccc(O)c12 : ____
Result: 91.3%

----------
Experiment: Psilocin-d10 pharmacokinetics in female beagle dogs, oral gavage and intravenous (bolus)
Measurement Parameters: female, beagle, dog, plasma, po, 1 mg/kg, AUC0-inf, female dog plasma, single oral gavage 1.00 mg/kg, animal 60F
Metric: AUC(0-inf)
Include the unit after the number when you answer.

Query: Could you tell me which AUC(0-inf) is on file for [2H]C([2H])([2H])N(C([2H])([2H])[2H])C([2H])([2H])C([2H])([2H])c1c[nH]c2cccc(O)c12 ?
Result: 374 ng·h/mL

----------
Experiment: Psilocin-d10 pharmacokinetics in female beagle dogs, oral gavage and intravenous (bolus)
Measurement Parameters: female, beagle, dog, plasma, po, 1 mg/kg, t1/2, female dog plasma, single oral gavage 1.00 mg/kg, animal 60F
Metric: half-life (h)
Numeric only. Scale: h

Query: Request the reported half-life associated with [2H]C([2H])([2H])N(C([2H])([2H])[2H])C([2H])([2H])C([2H])([2H])c1c[nH]c2cccc(O)c12
Result: 1.82

----------
Experiment: Psilocin-d10 pharmacokinetics in female beagle dogs, oral gavage and intravenous (bolus)
Measurement Parameters: female, beagle, dog, plasma, po, 1 mg/kg, Cmax, female dog plasma, single oral gavage 1.00 mg/kg, Mean (N=3)
Metric: Cmax (ng/mL)
Give the value in ng/mL but do not write ng/mL after it.

Query: Bench note: what Cmax did [2H]C([2H])([2H])N(C([2H])([2H])[2H])C([2H])([2H])C([2H])([2H])c1c[nH]c2cccc(O)c12 show?
Result: 146
